Cited source: patent US10662413B2

test_target: Bst-Lg (Bst Large fragment DNA polymerase) (Geobacillus stearothermophilus)
Sequence (P52026 289-876 limits assumed): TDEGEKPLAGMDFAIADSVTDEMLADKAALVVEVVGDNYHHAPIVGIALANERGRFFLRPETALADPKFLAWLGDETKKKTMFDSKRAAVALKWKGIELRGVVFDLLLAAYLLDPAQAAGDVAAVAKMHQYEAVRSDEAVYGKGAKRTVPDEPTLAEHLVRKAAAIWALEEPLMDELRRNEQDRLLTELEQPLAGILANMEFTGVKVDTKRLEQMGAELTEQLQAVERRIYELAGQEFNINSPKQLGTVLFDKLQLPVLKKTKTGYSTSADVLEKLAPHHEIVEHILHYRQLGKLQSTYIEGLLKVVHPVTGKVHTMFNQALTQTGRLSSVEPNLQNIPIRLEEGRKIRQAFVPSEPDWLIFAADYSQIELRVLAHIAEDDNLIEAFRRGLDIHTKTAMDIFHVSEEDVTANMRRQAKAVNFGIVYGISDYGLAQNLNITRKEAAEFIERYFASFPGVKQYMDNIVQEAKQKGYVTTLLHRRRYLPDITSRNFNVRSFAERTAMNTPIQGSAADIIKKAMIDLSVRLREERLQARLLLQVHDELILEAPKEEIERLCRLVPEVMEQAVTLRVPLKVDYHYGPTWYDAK

{"molecule": "Nc1ncnc2c1ncn2[C@H]1C[C@H](O)[C@@H](COP(=O)(O)OP(=O)(O)OP(=O)(O)O)O1", "IC50, nM": 2.54}
